Listing of recorded IC50 by entry.
- Assayed Target: Recombinant human integrin αvβ6 (Homo sapiens (Human), UniProt P06756+P18564)
- Sequence (P06756 31-992): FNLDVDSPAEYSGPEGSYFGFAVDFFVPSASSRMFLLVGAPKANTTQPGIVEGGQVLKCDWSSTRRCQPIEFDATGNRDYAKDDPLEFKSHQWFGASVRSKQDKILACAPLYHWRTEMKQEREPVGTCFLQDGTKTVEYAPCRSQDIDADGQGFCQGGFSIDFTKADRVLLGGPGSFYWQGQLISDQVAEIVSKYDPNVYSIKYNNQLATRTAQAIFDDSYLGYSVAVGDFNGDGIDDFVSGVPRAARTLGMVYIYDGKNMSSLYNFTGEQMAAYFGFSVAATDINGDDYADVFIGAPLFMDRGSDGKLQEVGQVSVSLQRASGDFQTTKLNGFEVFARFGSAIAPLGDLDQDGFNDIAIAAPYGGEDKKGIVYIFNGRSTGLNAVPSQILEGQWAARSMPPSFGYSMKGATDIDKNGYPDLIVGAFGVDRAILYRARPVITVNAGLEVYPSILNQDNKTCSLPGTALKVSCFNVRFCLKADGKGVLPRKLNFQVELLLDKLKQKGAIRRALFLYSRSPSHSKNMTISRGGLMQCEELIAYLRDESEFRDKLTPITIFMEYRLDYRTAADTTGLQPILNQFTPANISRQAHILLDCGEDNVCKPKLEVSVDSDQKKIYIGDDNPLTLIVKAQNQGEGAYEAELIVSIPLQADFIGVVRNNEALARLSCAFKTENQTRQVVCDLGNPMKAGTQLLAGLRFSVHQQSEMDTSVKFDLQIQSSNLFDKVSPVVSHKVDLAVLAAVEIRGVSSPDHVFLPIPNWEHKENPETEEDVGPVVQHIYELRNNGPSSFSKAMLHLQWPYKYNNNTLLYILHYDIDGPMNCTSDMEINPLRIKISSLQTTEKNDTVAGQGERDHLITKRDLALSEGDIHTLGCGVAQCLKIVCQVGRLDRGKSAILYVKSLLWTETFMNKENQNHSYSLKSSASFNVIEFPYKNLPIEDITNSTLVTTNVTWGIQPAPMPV
- Sequence (P18564 22-707): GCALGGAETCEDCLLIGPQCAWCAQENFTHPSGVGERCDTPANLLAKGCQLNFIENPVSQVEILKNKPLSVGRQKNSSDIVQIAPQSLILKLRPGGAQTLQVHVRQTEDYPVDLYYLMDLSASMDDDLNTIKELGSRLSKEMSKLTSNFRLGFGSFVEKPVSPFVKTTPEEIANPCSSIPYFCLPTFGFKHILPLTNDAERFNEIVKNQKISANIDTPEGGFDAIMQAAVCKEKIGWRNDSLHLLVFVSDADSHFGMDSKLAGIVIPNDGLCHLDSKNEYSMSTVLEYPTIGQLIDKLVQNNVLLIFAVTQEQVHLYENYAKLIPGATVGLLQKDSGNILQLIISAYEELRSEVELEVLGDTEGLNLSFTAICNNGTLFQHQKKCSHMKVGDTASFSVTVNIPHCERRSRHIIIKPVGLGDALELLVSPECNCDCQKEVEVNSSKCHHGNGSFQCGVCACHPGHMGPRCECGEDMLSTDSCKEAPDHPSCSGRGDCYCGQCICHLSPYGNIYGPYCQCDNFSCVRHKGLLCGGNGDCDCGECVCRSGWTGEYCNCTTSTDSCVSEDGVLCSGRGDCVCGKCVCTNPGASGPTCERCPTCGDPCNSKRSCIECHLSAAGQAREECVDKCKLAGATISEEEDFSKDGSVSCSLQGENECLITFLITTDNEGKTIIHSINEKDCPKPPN
- Measurement Protocol: Solid Phase Receptor Assay (SPRA) for αvβ6 function
- Type: binding
- Test Parameters: LAP-coated plate

Compound: O=C(O)C[C@H](NC(=O)CNC(=O)c1cc(O)cc(NC2=NCC(O)CN2)c1)c1cc(Br)cc(C(F)(F)F)c1 (stereo partly shown)
Assayed Target: Recombinant human integrin αvβ6 (Homo sapiens (Human), UniProt P06756+P18564)
IC50 [pM]: 300
//
Compound: O=C(O)C[C@H](NC(=O)CNC(=O)c1cncc(NC2=NCC(O)CN2)c1)c1cc(Cl)cc(Br)c1 (stereo partly shown)
Assayed Target: Recombinant human integrin αvβ6 (Homo sapiens (Human), UniProt P06756+P18564)
IC50 [pM]: 400
//
Compound: Cc1cc(Cl)cc([C@@H](CC(=O)O)NC(=O)CNC(=O)c2cccc(NC3=NCCN3)c2)c1O [Example C11, reference compound]
Assayed Target: Recombinant human integrin αvβ6 (Homo sapiens (Human), UniProt P06756+P18564)
IC50 [pM]: 4000
//
Compound: Cc1ccc(O)c(C(CC(=O)O)NC(=O)CNC(=O)c2cccc(NC(=N)N)c2)c1 (stereo not shown) [Example C8, reference compound]
Assayed Target: Recombinant human integrin αvβ6 (Homo sapiens (Human), UniProt P06756+P18564)
IC50 [pM]: 2000
//
Compound: Cc1cc(C)cc(C(CC(=O)O)NC(=O)CNC(=O)c2cccc(NC(=N)N)c2)c1 (stereo not shown) [Example C4, reference compound]
Assayed Target: Recombinant human integrin αvβ6 (Homo sapiens (Human), UniProt P06756+P18564)
IC50 [pM]: 2000
//
Compound: O=C(O)C[C@H](NC(=O)CNC(=O)c1cc(O)cc(NC2=NCC(O)CN2)c1)c1cc(Br)cc(C(F)F)c1 (stereo partly shown)
Assayed Target: Recombinant human integrin αvβ6 (Homo sapiens (Human), UniProt P06756+P18564)
IC50 [pM]: 400
//
Compound: Cc1cc(Cl)cc([C@H](CC(=O)O)NC(=O)CNC(=O)c2cc(O)cc(NC3=NCC(O)CN3)c2)c1 (stereo partly shown)
Assayed Target: Recombinant human integrin αvβ6 (Homo sapiens (Human), UniProt P06756+P18564)
IC50 [pM]: 600

###

- Measurement Protocol: IV cassette pharmacokinetic study in male Sprague-Dawley rats (Saint Louis University)
- Format: in vivo
- Test Parameters: plasma; male Sprague-Dawley rat, 1 mg/kg IV cassette, sampling to 24 h; read-out: plasma t½ after 1 mg/kg IV bolus dose in rat (converted)
Collected half-life values appear next to each entry.

Molecule: CC(C)(C)c1cc(Br)cc([C@H](CC(=O)O)NC(=O)CNC(=O)c2cccc(NC(=N)N)c2)c1 [Example C17, reference compound]
half-life: 0.8 h

Molecule: O=C(O)C[C@H](NC(=O)CNC(=O)c1cc(O)cc(NC2=NCC(O)CN2)c1)c1cc(Cl)cc(OC(F)(F)F)c1 (stereo partly shown)
half-life: 3.2 h

Molecule: CC(C)(O)c1cc(Cl)cc([C@H](CC(=O)O)NC(=O)CNC(=O)c2cc(O)cc(NC3=NCC(O)CN3)c2)c1 (stereo partly shown) [Example C16, reference compound]
half-life: 1.6 h

Molecule: NC(=O)c1cc(Cl)cc([C@H](CC(=O)O)NC(=O)CNC(=O)c2cc(O)cc(NC3=NCC(O)CN3)c2)c1 (stereo partly shown) [Example C30, reference compound]
half-life: 1.6 h

Molecule: O=C(O)C[C@H](NC(=O)CNC(=O)c1cncc(NC2=NCC(O)CN2)c1)c1cc(Br)cc(C(F)(F)F)c1 (stereo partly shown)
half-life: 5.6 h

Molecule: CC(C)(C)c1cc(Br)cc([C@H](CC(=O)O)NC(=O)CNC(=O)c2cccc(NC3=NCCN3)c2)c1 [Example C18, reference compound]
half-life: 1.2 h

Molecule: O=C(O)C[C@H](NC(=O)CNC(=O)c1cc(O)cc(NC2=NCC(O)CN2)c1)c1cc(Cl)cc(Br)c1 (stereo partly shown)
half-life: 16.7 h

Molecule: O=C(O)C[C@H](NC(=O)CNC(=O)c1cc(O)cc(NC2=NCC(O)CN2)c1)c1ccccc1 (stereo partly shown) [Example C29, reference compound]
half-life: < 0.08 h

Molecule: O=C(O)C[C@H](NC(=O)CNC(=O)c1cc(O)cc(NC2=NCC(O)CN2)c1)c1cc(F)cc(Br)c1 (stereo partly shown)
half-life: 11 h

Molecule: O=C(O)C[C@H](NC(=O)CNC(=O)c1cc(O)cc(NC2=NCC(O)CN2)c1)c1cc(Cl)cc(C(F)(F)F)c1 (stereo partly shown)
half-life: 6.6 h

Molecule: O=C(O)C[C@H](NC(=O)CNC(=O)c1cc(O)cc(NC2=NCC(O)CN2)c1)c1cc(Cl)cc(C(F)F)c1 (stereo partly shown)
half-life: 6.1 h

Molecule: Cc1cc(Br)cc([C@H](CC(=O)O)NC(=O)CNC(=O)c2cc(O)cc(NC3=NCC(O)CN3)c2)c1 (stereo partly shown)
half-life: 24 h

Molecule: O=C(O)C[C@H](NC(=O)CNC(=O)c1cc(O)cc(NC2=NCC(O)CN2)c1)c1cc(Cl)cc(Cl)c1 (stereo partly shown)
half-life: 23.8 h

Molecule: CC(C)(C)c1cc(Br)cc([C@H](CC(=O)O)NC(=O)CNC(=O)c2cc(O)cc(NC3=NCC(O)CN3)c2)c1 (stereo partly shown) [Example C12, reference compound]
half-life: 0.5 h

Molecule: O=C(O)C[C@H](NC(=O)CNC(=O)c1cncc(NC2=NCC(O)CN2)c1)c1cc(Cl)cc(Br)c1 (stereo partly shown)
half-life: 23.9 h

Molecule: CC(C)(C)c1cc(Br)cc([C@H](CC(=O)O)NC(=O)CNC(=O)c2cc(O)cc(NC3=NCC(O)CN3)c2)c1O (stereo partly shown) [Example C14, reference compound]
half-life: 1 h

Molecule: O=C(O)C[C@H](NC(=O)CNC(=O)c1cc(O)cc(NC2=NCC(O)CN2)c1)c1cc(Br)cc(Br)c1 (stereo partly shown)
half-life: 20.2 h

Molecule: CC(C)(O)c1cc(Br)cc([C@H](CC(=O)O)NC(=O)CNC(=O)c2cc(O)cc(NC3=NCC(O)CN3)c2)c1 (stereo partly shown) [Example C15, reference compound]
half-life: 0.6 h

Molecule: O=C(O)C[C@H](NC(=O)CNC(=O)c1cc(O)cc(NC2=NCC(O)CN2)c1)c1cc(C(F)(F)F)cc(C(F)(F)F)c1 (stereo partly shown)
half-life: 3.9 h

Molecule: O=C(O)C[C@H](NC(=O)CNC(=O)c1cc(O)cc(NC2=NCC(O)CN2)c1)c1cc(Br)cc(C(F)(F)F)c1 (stereo partly shown)
half-life: 9.1 h

Molecule: Cc1cc(Cl)cc([C@H](CC(=O)O)NC(=O)CNC(=O)c2cc(O)cc(NC3=NCC(O)CN3)c2)c1 (stereo partly shown)
half-life: 13.7 h

Molecule: O=C(O)C[C@H](NC(=O)CNC(=O)c1cncc(NC2=NCC(O)CN2)c1)c1cc(Cl)cc(C(F)(F)F)c1 (stereo partly shown)
half-life: 4.6 h

Molecule: O=C(O)C[C@H](NC(=O)CNC(=O)c1cc(O)cc(NC2=NCC(O)CN2)c1)c1cc(Br)cc(OC(F)(F)F)c1 (stereo partly shown)
half-life: 4.1 h

Molecule: CC(C)(C)c1cc(Br)c(O)c([C@H](CC(=O)O)NC(=O)CNC(=O)c2cc(O)cc(NC3=NCC(O)CN3)c2)c1 (stereo partly shown) [Example C13, reference compound]
half-life: 1.1 h

Molecule: O=C(O)C[C@H](NC(=O)CNC(=O)c1cncc(NC2=NCC(O)CN2)c1)c1cc(Br)cc(Br)c1 (stereo partly shown)
half-life: 34.2 h

###

# pIC50 per record follows
- Assayed Target: Recombinant human integrin αvβ8 (Homo sapiens (Human), UniProt P06756+P26012)
- Sequence (P26012 43-684, one chain of several): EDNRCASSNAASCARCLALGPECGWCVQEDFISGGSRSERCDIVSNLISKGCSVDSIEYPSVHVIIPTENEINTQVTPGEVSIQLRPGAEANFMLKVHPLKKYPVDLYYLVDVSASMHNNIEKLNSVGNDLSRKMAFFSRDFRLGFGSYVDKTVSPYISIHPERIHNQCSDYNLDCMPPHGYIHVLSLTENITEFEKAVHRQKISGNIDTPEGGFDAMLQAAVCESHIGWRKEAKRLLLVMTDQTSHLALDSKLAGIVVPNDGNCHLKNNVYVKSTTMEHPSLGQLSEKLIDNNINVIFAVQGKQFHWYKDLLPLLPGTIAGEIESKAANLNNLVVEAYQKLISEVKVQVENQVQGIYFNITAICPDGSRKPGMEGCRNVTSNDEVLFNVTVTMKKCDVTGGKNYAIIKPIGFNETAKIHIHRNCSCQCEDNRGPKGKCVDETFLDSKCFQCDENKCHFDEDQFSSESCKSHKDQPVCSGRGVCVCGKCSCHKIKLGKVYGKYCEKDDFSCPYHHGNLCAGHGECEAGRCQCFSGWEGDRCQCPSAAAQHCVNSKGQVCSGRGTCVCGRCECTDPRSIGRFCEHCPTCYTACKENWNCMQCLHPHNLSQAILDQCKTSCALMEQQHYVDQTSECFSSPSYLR
- Measurement Protocol: Solid Phase Receptor Assay (SPRA) for αvβ8 function
- Test Parameters: LAP-coated plate
pIC50: −log10 of the molar value.
Test Readout: pIC50

Compound: Cc1cc(Cl)cc([C@H](CC(=O)O)NC(=O)CNC(=O)c2cc(O)cc(NC3=NCC(O)CN3)c2)c1 (stereo partly shown)
Observed: 9.15
--
Compound: O=C(O)C[C@H](NC(=O)CNC(=O)c1cncc(NC2=NCC(O)CN2)c1)c1cc(Br)cc(Br)c1 (stereo partly shown)
Observed: 9.70
--
Compound: O=C(O)C[C@H](NC(=O)CNC(=O)c1cc(O)cc(NC2=NCC(O)CN2)c1)c1cc(Cl)cc(C(F)(F)F)c1 (stereo partly shown)
Observed: 9.22
--
Compound: O=C(O)C[C@H](NC(=O)CNC(=O)c1cc(O)cc(NC2=NCC(O)CN2)c1)c1cc(C(F)(F)F)cc(C(F)(F)F)c1 (stereo partly shown)
Observed: 9.52
--
Compound: Cc1cc(Cl)cc([C@@H](CC(=O)O)NC(=O)CNC(=O)c2cc(O)cc(NC3=NCC(O)CN3)c2)c1O (stereo partly shown) [Example C10, reference compound]
Observed: 8.30
--
Compound: Cc1cc(C)cc(C(CC(=O)O)NC(=O)CNC(=O)c2cccc(NC(=N)N)c2)c1 (stereo not shown) [Example C4, reference compound]
Observed: 8.22
--
Compound: O=C(O)C[C@H](NC(=O)CNC(=O)c1cc(O)cc(NC2=NCC(O)CN2)c1)c1ccccc1 (stereo partly shown) [Example C2, reference compound]
Observed: 8.30
